assay: HepG2 cytotoxicity, primary screen, cytotoxicity control for P. falciparum antimalarial project, cell-based, ATP luminescence (AID 2303); conditions: HepG2 viability, 24-48 h, at 10 µM, stronger effect = higher value
// assign condition met if inhibition falls strictly below 40%, else condition not met (ties count as condition not met)

-- ask Hello, I'm reviewing records and need to know if inhibition of O=C(Nc1ccc(-c2nc3ccccc3[nH]2)cc1)c1ccc(Cl)c([N+](=O)[O-])c1 is below 40%. Could you check?
-- reply condition met

-- ask Hello, I'm reviewing records and need to know if inhibition of CCn1cc(CN2CCCC(C(=O)Nc3ccc(-c4nc5ccccc5[nH]4)cc3)C2)c(C)n1 (stereo unspecified) is below 40%. Could you check?
-- reply condition met

-- ask Hello, I'm reviewing records and need to know if inhibition of CN(C)Cc1c(O)ccc2[nH]c(-c3ccc(F)cc3F)nc12 is below 40%. Could you check?
-- reply condition met

-- ask Hello, I'm reviewing records and need to know if inhibition of c1ccc2nc(NCCCCCCCCNc3ccc4ccccc4n3)ccc2c1 is below 40%. Could you check?
-- reply condition not met

-- ask Hello, I'm reviewing records and need to know if inhibition of c1ccc(-c2cc3cccc(-c4nc5ccncc5[nH]4)c3o2)cc1 is below 40%. Could you check?
-- reply condition met

-- ask Hello, I'm reviewing records and need to know if inhibition of COc1cccc(C2CCN(CCN3CCC(NC(=O)c4ccc(-c5ccc(Cl)cc5)cc4)CC3)CC2)c1 is below 40%. Could you check?
-- reply condition met

-- ask Hello, I'm reviewing records and need to know if inhibition of Cc1cc(N[C@@H](Cc2ccccc2)C(=O)Nc2ccccc2)nc(NCCc2cccnc2)n1 is below 40%. Could you check?
-- reply condition met

-- ask Hello, I'm reviewing records and need to know if inhibition of Cc1cccc2[nH]c(-c3ccc(-c4ccc(CN5CCC(CO)CC5)cc4)s3)nc12 is below 40%. Could you check?
-- reply condition met

-- ask Hello, I'm reviewing records and need to know if inhibition of Cc1ccc(CNc2ccc3ncc(-c4cccc(C(=O)NCCN(C)C)c4)n3n2)c(C)c1 is below 40%. Could you check?
-- reply condition not met

-- ask Hello, I'm reviewing records and need to know if inhibition of c1ccc2c(NCCCCCCCCCNc3ccnc4ccccc34)ccnc2c1 is below 40%. Could you check?
-- reply condition not met
